experiment: NCI Yeast Anticancer Drug Screen. Data for the sgs1 mgt1 strain (AID 161);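 further: 0% = growth of cultures given vehicle only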; details: S. cerevisiae sgs1 mgt1 strain, at 50.0 µM (retest, dose inferred, filed as 5.0), stronger effect = higher value
The panel holds about 79,000 compounds, 15% with a hit somewhere; the sample as a whole holds those more often.
Where growth inhibition equals or exceeds 90%, the correct label is yes; where it does not, the label is no.

molecule	class
O=S(=O)(O)CC[S][Sn]([S]CCS(=O)(=O)O)([c]1ccccc1)[c]1ccccc1 (tested in a mixture with another compound)	yes
N#CC1(C#N)C2C=CC(C3CCC=C32)C1(C#N)C#N (configuration not stated)	yes
Clc1ccc(OCC2CO2)c(Cl)c1 (configuration not stated)	no
Clc1c(Cl)c(Cl)c(SC2C3CC4C(C3)C42)c(Cl)c1Cl (configuration not stated)	yes
COc1ccc(/C(C#N)=C(/N)SCc2ccccc2Cl)cc1	no
CCOC(=O)/C(C#N)=C\c1ccc(N(CCC(=O)O)CCC(=O)O)c(I)c1	no
Nc1ccc2c(c1)S(=O)(=O)c1cc(N)ccc1-2	no
Cc1nc(N)sc1N=Nc1ccc(Cl)cc1Cl	yes
O=C(C(/C=N/C(=S)NCc1ccccc1)=C(/O)c1ccccc1)c1ccccc1	no
CN1c2ccccc2Sc2c1n[nH]c2-c1ccccc1	no
CC1(C)COC(c2cccc(C(O)c3ccc(Cl)cc3)c2)=N1 (configuration not stated)	yes
CCCCc1c2c(nc3c1CCc1cc4cc5c(nc4nc1-3)-c1nc3c(c(CCCC)c1CC5)CCCC3=O)C(=O)CCC2	yes
COc1nc(N)c(N=O)c(OCc2ccccc2)n1	no
O=[N+]([O-])c1ccc(CSSCc2ccc([N+](=O)[O-])cc2)cc1	no
O=[N+]([O-])c1ccc(NS(=O)(=O)c2ccc(Cl)c(Cl)c2Cl)c([N+](=O)[O-])c1	no
O=C1c2c(Br)c(Br)c(Br)c(Br)c2C(=O)N1c1nccs1	no
CN(C)C(=S)S(=O)(=O)CCCCS(=O)(=O)C(=S)N(C)C	no
CCC(C)(C)C(=O)OCC(=O)c1ccc(-c2ccccc2)cc1	no
O=C1Oc2cc3c(c4cccc1c24)OCN(c1ccccc1)C3	no
CC1(C)CC(=O)C2=C(C1)OC1=C(C(=O)CC(C)(C)C1)C2CC(c1ccccc1)c1ccc(O)c(O)c1O (configuration not stated)	no
CC(NNC(=S)N1CCCCCC1)c1cccnn1 (configuration not stated)	yes
c1ccc(-n2c3ccccc3c3ccccc32)cc1	no
Cc1cc(Cl)c2c(c1)C(=O)/C(=C/c1ccc(Cl)cc1)O2	yes
COC(=O)Nc1nc2ccc(CCC(=O)c3c(C)oc(C)c3-c3ccc(NC(C)=O)cc3)cc2[nH]1	no
O=C(N/N=C/c1ccccn1)c1ccccc1[O-].O=C(N/N=C/c1ccccn1)c1ccccc1[O-].[Co+2]	no
CCCCCCCCCCCCCCCCCC[n+]1cccc(C(=O)N2CCOCC2)c1	yes

====

experiment: NCI Yeast Anticancer Drug Screen. Data for the sgs1 mgt1 strain (AID 161);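 further: 0% = growth of cultures given vehicle only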; conditions: S. cerevisiae sgs1 mgt1 strain, at 5.0 µM (retest, dose inferred, filed as 0.5), stronger effect = higher value
About 79,000 compounds went through this panel and 15% of them were active in at least one assay; those are over-represented in the sample as a whole.
outcome-measure: growth inhibition (%)

compound	quantitative-readout
CN1c2ccccc2S(=O)(=O)n2c(CCc3ccccc3)nnc21	10
NC(CCCCCC(N)C(=O)O)C(=O)O (stereo not drawn)	-66
COC(=O)c1ccc(-c2ccccc2)cc1	3
CCN(CC)CCOC(=O)c1ccc(N=Nc2ccc(O)c3ccccc23)cc1	6
CSC(=S)N/N=C\C(C)=N/N=C(N)N	53
COc1ccc2c(c1)nc1cc(Cl)ccc1[n+]2C	-5
c1cc2c(c3c1CN(C1CCCCC1)CO3)OCN(C1CCCCC1)C2	6
CCC1([N+](=O)[O-])COC(c2ccc3c(c2)OCO3)OC1 (stereo not drawn)	-1

====

growth inhibition by entry:
assay: NCI Yeast Anticancer Drug Screen. Data for the mlh1 rad18 strain (AID 175); conditions: S. cerevisiae mlh1 rad18 strain growth inhibition; at 5.0 µM (retest, dose inferred, filed as 0.5); stronger effect = higher value
About 79,000 compounds went through this panel and 15% of them were active in at least one assay; those are over-represented in the sample as a whole.

compound	growth inhibition, %
COc1ccc(C(C)(C)c2cc3c(cc2OCCO)OCO3)cc1	1
COc1ccccc1NC(=O)O/N=C(/Cl)C(C)C	-24
CC(=O)c1cc(I)c(O)c2ncccc12	100
CN(C)c1ccc(SC(=S)NCc2ccccc2)cc1	4
COc1ccc(Cc2nncc3ccccc23)cc1OC	-4
O=C(O)c1ccc(C(=O)c2ccccc2C(=O)O)cc1	1
COc1cc(C=O)c(C=O)cc1OC	16
COc1cccc(/C=C(\NC(=O)c2ccccc2)c2nc3ccccc3s2)c1	25
O=C(OCCCC(C(=O)c1ccccc1)=P(c1ccccc1)(c1ccccc1)c1ccccc1)c1ccccc1	50
O=[N+]([O-])c1ccc(-c2ccc(-c3csc(Nc4ccccc4)n3)o2)cc1	98
C/C(=N\Nc1n[nH]c(=S)n1N)c1c(O)cc(C)oc1=O	-2
N=c1c2ccccc2cc2c3ccccc3ccn12	60
CN(C)C(=S)S(=O)(=O)CCCCS(=O)(=O)C(=S)N(C)C	-3
COc1ccc(OCC(O)CN2CCN(c3cccc(Cl)c3)CC2)cc1 (stereo not given)	20
NS(=O)(=O)c1ccc(Nc2c3ccccc3nc3c(C(=O)NC(CO)(CO)CO)cccc23)cc1	-14

====

experiment: NCI Yeast Anticancer Drug Screen. Data for the sgs1 mgt1 strain (AID 161);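 further: 0% = growth of cultures given vehicle only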; settings: S. cerevisiae sgs1 mgt1 strain, at 50.0 µM (retest, dose inferred, filed as 5.0), stronger effect = higher value
About 79,000 compounds went through this panel and 15% of them were active in at least one assay; those are over-represented in the sample as a whole. Active and inactive are the calls of the source. Rule as the data show it: active = growth inhibition above about 70%; inactive = the rest.

compound	growth inhibition
Cc1ccc(C2(O)CCN(Cc3ccccc3)CC2)cc1	72% (active)
NC1=NCN(C2OC(COCc3ccccc3)C(OCc3ccccc3)C2OCc2ccccc2)C(=O)N1 (stereo unspecified)	59% (inactive)
Oc1ccc(COCCBr)c2cccnc12	99% (active)
CCCCCCCCCCCC[n+]1ccc(C)cc1	99% (active)
S=C(Nc1ccccc1)NC1CCCCCCCCC1	53% (inactive)
CCCSc1n[nH]c(=S)s1	46% (inactive)
COc1ccc2c(c1)CN1C(CCC3c4ccccc4NC31)C2 (stereo unspecified)	30% (inactive)
CCCCCCCCCCCC[S+](C)C	83% (active)
O=S(=O)(SCc1ccccc1)C(c1ccccc1)c1ccccc1	31% (inactive)
Nc1ccc(Cl)c2c1C(=O)c1ccccc1C2=O	41% (inactive)
Oc1cccc2ccc(/C=C/c3ccccn3)nc12	98% (active)

====

experiment: NCI Yeast Anticancer Drug Screen. Data for the mec2-1 strain (AID 157); conditions: S. cerevisiae mec2-1 strain, at 50.0 µM (retest, dose inferred, filed as 5.0)
This is part of a sample that, as a whole, favours compounds with a hit. Of some 79,000 tested, about 15% had one in any assay. Active and inactive are the calls of the source. No stated cut-off is given here; in the data, active means growth inhibition above about 70%; inactive means the rest.
Outcomes: T (active), F (inactive)

molecule	class
CCCN(Cc1ccccc1)S(=O)(=O)c1ccc(C)cc1	T
COc1ccc(Cl)c(-c2cc(OC)c(N=N/C(=N/Nc3ccc([N+](=O)[O-])cc3)c3ccc([N+](=O)[O-])cc3)cc2Cl)c1	F
CC1(C)OC(=O)C(=NNc2ccccc2[N+](=O)[O-])C(=O)O1	F
C=C1CC(COc2ccc3c(C)cc(=O)oc3c2)(c2ccccc2)OC1=O (stereo not drawn)	F
Cc1cc(=O)[nH]c2cc3oc4ccccc4c3cc12	F
O=C(N/N=C/c1cc(Cl)cc(Cl)c1O)c1ccccc1	F
O=C(OCc1ccccc1)c1ccc(O)cc1	T
CCc1nc2ccc(N=NN(C)C)cc2[nH]1	T
OC(CN1CCc2ccccc2C1)c1ccc2ccccc2c1 (stereo not drawn)	F
CC(=O)Nc1ccccc1C(O)(c1ccccc1)c1ccccc1	F
Cc1ccc(SCc2ccccc2Cl)nn1	F
C=C(CN(C)C)C(=O)c1ccccc1C	T
OC(c1cc(-c2ccc(Cl)c(Cl)c2)nc2ccccc12)C1CCCCN1 (stereo not drawn)	F

====

growth inhibition by entry:
assay: NCI Yeast Anticancer Drug Screen. Data for the cln2 rad14 strain (AID 165);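 further: 0% = growth equal to vehicle treated cultures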; settings: S. cerevisiae cln2 rad14 strain, at 50.0 µM (retest, dose inferred, filed as 5.0), stronger effect = higher value
This is part of a sample that, as a whole, favours compounds with a hit. Of some 79,000 tested, about 15% had one in any assay.

compound	growth inhibition [%]
C[C@]12CC[C@H](O)C[C@@H]1CC[C@@H]1[C@@H]2CC[C@]2(C)[C@@H](c3cc(C(F)(F)F)n[nH]3)CC[C@@H]12	92
CC(NNC(=S)N1CCCC1)c1cc2ccccc2cn1 (stereo not given)	96
CCN(CC)C(=O)N1CCN(c2cccc(Cl)c2)CC1	50
CN1c2ccccc2C(=O)NC1c1ccc([N+](=O)[O-])s1 (stereo not given)	23
O=C(CCCN1CCC(C(O)c2ccc(F)cc2)CC1)c1ccc(F)cc1 (stereo not given)	87
CN(C)c1ccc(/C=C/c2ccnc3ccccc23)cc1Cl	94
O=C(CN1CCOCC1)Nc1nc(-c2ccc(Cl)cc2)cs1	90
CCSC1(SCC)C(=O)OC2=C(CCCC2)C1N1CCOCC1 (stereo not given)	31
Clc1ccccc1C=Nc1cccc2ccccc12	8
O=CC1(c2ccc(Cl)cc2)NC(=O)NC1=O (stereo not given)	-14
CCCCC#CCOC(=O)c1cc([N+](=O)[O-])cc([N+](=O)[O-])c1	99
CC(C)=CCc1c(O)cc(O)c2c1OC(c1ccc(O)cc1)C(O)C2=O (stereo not given)	99
CCC1(C)OC(=O)C(c2ccccc2)O1 (stereo not given)	1
CN(C)C(C)(C)CCNc1c2ccccc2nc2cccc([N+](=O)[O-])c12	99
CCc1cccc(CC)c1NC1=C(Cl)C(=O)c2ccccc2C1=O	98
CCOC(=O)c1c(N2CCCC2)nsc1Nc1ccc(F)cc1	75
O=C(Oc1c(I)ccccc1=O)c1ccc([N+](=O)[O-])cc1	98
N#CC(Br)(C#N)Cc1ccccc1	99
CSC(=S)N/N=C\C(C)=N/N=C(N)N	89
CCOC(=O)C1(C#N)C(c2ccccc2)C1(C#N)C#N (stereo not given)	76
CN(NC(=O)/C(=C/c1ccc2c(c1)OCO2)NC(=O)c1ccccc1)c1ccnc2cc(Cl)ccc12	11
CC(C)(C)CC(C)(C)NCc1cc(Cl)cc(Cc2cc(Cl)ccc2O)c1O	94
COc1ccc(C(C)(C)c2cc3c(cc2OCCO)OCO3)cc1	70
O[C@H]1c2cccn2-c2ccccc2S[C@H]1c1ccccc1	99
CC12CC(O)C3C(CCC4CCCCC43C)C1CC/C2=N/O (stereo not given)	-6
